Source listed as PubChem BioAssay AID1845197.

# System: 349418-098-R tumor spheroid viability;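 further: spheroids exposed to compound for 7 days before measurement; percent of vehicle control viability with 100% = DMSO-treated spheroids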
# PROTOCOL_NOTES: Anticancer human tumor 349418-098-R patient-derived lung adenocarcinoma cell line growth inhibition
# STUDY_CONDITIONS: second compound 3.16 µM; first compound 3.16 µM; active compounds read low; spheroids with HUVEC and MSC
I'd appreciate it if you marked entries class 1 when viability, T/C is lower than 70% and class 0 when it is not.

INSERT INTO measurements (molecule, assigned_category) VALUES
  ('Cc1cc(C)c(CNC(=O)c2cc(-c3ccc(CN4CCOCC4)cc3)cc3c2cnn3C2CCCC2)c(=O)[nH]1 + Cn1nnc2c(C(N)=O)ncn2c1=O', 'class 0');

Would you kindly verify if viability, T/C of CC1COCCN1c1cc(-c2ccnn2C)c2ccnc(-c3ccn[nH]3)c2n1 (stereo not given) + Cn1nnc2c(C(N)=O)ncn2c1=O is strictly less than 70%?
class 1

Would you kindly verify if viability, T/C of CC(C)n1c(=O)n(C)c2cnc3cc(F)c(-c4ccc(OCCCN5CCCCC5)nc4)cc3c21 + Cn1nnc2c(C(N)=O)ncn2c1=O is strictly less than 70%?
class 0

Would you kindly verify if viability, T/C of [2H]c1nc(C)nc([2H])c1-c1cc(NC[C@@H](C)c2cccc3c(C(=O)NC)ccnc23)ncn1 + Cn1nnc2c(C(N)=O)ncn2c1=O is strictly less than 70%?
class 0
